Where do the numbers come from? From PubChem BioAssay (EPA / NIEHS).

Experiment: ATG_CMV_CIS: Attagene CIS-FACTORIAL HepG2 Assay for human CMV (Internal Marker) (AID 2282928);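 further: endpoint acts as a background internal control marker rather than a target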
Conditions: HepG2 CMV promoter reporter, transcription factor profiling; actives raise or lower the signal
Calls of active or inactive are those of the source. How the source made its calls: active means hit-call score of the fitted dose curve at least 0.9, where 1 is the maximum; inactive means score below 0.9.
Possible outcomes: T = active, F = inactive

[[record]]
molecule = "CC1CCCCC1"
assigned_category = "F"

[[record]]
molecule = "NC(=O)C(F)(F)C(F)(F)C(F)(F)C(F)F"
assigned_category = "F"

[[record]]
molecule = "CCCCCCCCCCCCCCCCC"
assigned_category = "F"

[[record]]
molecule = "c1ccc(C[P+](c2ccccc2)(c2ccccc2)c2ccccc2)cc1"
assigned_category = "F"

[[record]]
molecule = "OCC(F)(F)C(F)(F)C(F)(F)C(F)(F)C(F)(F)C(F)(F)CO"
assigned_category = "F"

[[record]]
molecule = "Oc1ccc(C2(c3ccc(O)c(C4CCCCC4)c3)CCCCC2)cc1C1CCCCC1"
assigned_category = "T"

[[record]]
molecule = "CO[Si](C)(CCC(F)(F)C(F)(F)C(F)(F)C(F)(F)C(F)(F)C(F)(F)F)OC"
assigned_category = "F"

[[record]]
molecule = "CCN=C1C=CC(=C(c2ccc(N(CC)CC)cc2)c2ccc(N(CC)CC)cc2)c2ccccc21"
assigned_category = "T"

[[record]]
molecule = "O=c1[nH]cccc1O"
assigned_category = "F"

[[record]]
molecule = "OCCCCC(F)(F)C(F)(F)C(F)(F)C(F)(F)F"
assigned_category = "F"

[[record]]
molecule = "O=C(O)C(F)(F)C(F)(F)C(F)(F)OC(F)(C(F)(F)F)C(F)(F)F"
assigned_category = "F"

[[record]]
molecule = "NCC(F)(F)C(F)(F)C(F)(F)C(F)(F)C(F)(F)C(F)(F)F"
assigned_category = "F"

[[record]]
molecule = "CC(C)(C)C(=O)C1C(=O)c2ccccc2C1=O"
assigned_category = "T"

[[record]]
molecule = "CN(C)C(C)(C)CO"
assigned_category = "F"

[[record]]
molecule = "CC(=O)CCC(C)C"
assigned_category = "F"

[[record]]
molecule = "F[Si-2](F)(F)(F)(F)F"
assigned_category = "F"

[[record]]
molecule = "NCC(F)(F)C(F)(F)C(F)(F)C(F)(F)C(F)(F)C(F)(F)C(F)(F)C(F)(F)F"
assigned_category = "F"

[[record]]
molecule = "CCCCOC(=O)C(C)O (configuration not stated)"
assigned_category = "F"

[[record]]
molecule = "CO[Si](CCCOCC1CO1)(OC)OC (configuration not stated)"
assigned_category = "F"

[[record]]
molecule = "CCN=c1cc2oc3cc(NCC)c(C)cc3c(-c3ccccc3C(=O)OCC)c-2cc1C"
assigned_category = "F"

[[record]]
molecule = "NC(=O)C(F)(F)C(F)(F)C(F)(F)C(F)(F)C(F)(F)C(F)(F)C(F)(F)F"
assigned_category = "F"

[[record]]
molecule = "CC(C)=CCCC(C)O (configuration not stated)"
assigned_category = "F"

[[record]]
molecule = "CC(=O)c1ccccc1N"
assigned_category = "F"

[[record]]
molecule = "CCCC(=O)OCC(COC(=O)CCC)OC(=O)CCC"
assigned_category = "T"

[[record]]
molecule = "COC(F)(C(F)F)C(F)(F)F (configuration not stated)"
assigned_category = "F"

[[record]]
molecule = "CC(C)OC(=O)COc1ccc(Cl)cc1Cl"
assigned_category = "F"

[[record]]
molecule = "O=c1cccc[nH]1"
assigned_category = "F"


---

Read-out: Monokine induced gamma interferon (MIG), CXCL9 (gene 4283)
Test: BSK_BE3C_MIG: BioMAP Diversity Plus: BE3C Assay for Monokine induced gamma interferon (MIG) Biomarker Activity (AID 2283035);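 further: MIG protein measured by ELISA in BE3C cultures after 24 h of dosing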
Settings: primary human bronchial epithelial cells; actives raise or lower the signal
The source made the active and inactive calls. How the source made its calls: active means hit-call score of the fitted dose curve at least 0.9, where 1 is the maximum; inactive means score below 0.9.
quantity-kind: outcome

[[record]]
smiles_text = "O=C=Nc1cccc2c(N=C=O)cccc12"
value_reported = "inactive"

[[record]]
smiles_text = "CC(C)(C)c1cc(CCC(=O)NCCCCCCNC(=O)CCc2cc(C(C)(C)C)c(O)c(C(C)(C)C)c2)cc(C(C)(C)C)c1O"
value_reported = "inactive"

[[record]]
smiles_text = "NCC(F)(F)C(F)(F)C(F)(F)C(F)(F)C(F)(F)C(F)(F)C(F)(F)C(F)(F)F"
value_reported = "inactive"


---

Read-out: Urokinase-type plasminogen activator receptor (uPAR), PLAUR (gene 5329)
Assay: BSK_4H_uPAR: BioMAP Diversity Plus: 4H Assay for Urokinase-type plasminogen activator receptor (uPAR) Biomarker Activity (AID 2283030)
Settings: primary human endothelial cells (HUVEC); actives raise or lower the signal
Active and inactive are the calls of the source. How the source made its calls: active means hit-call score of the fitted dose curve at least 0.9, where 1 is the maximum; inactive means score below 0.9.
Possible outcomes: yes (active), no (inactive)

[[record]]
molecule = "O=S(=O)(OCC(F)(F)F)C(F)(F)C(F)(F)C(F)(F)C(F)(F)F"
assigned_category = "no"

[[record]]
molecule = "O=C(O)C(F)(F)C(F)(F)C(F)(F)OC(F)(C(F)(F)F)C(F)(F)F"
assigned_category = "no"

[[record]]
molecule = "O=C(O)C(F)(F)C(F)(F)C(F)(F)C(F)(F)C(F)(F)C(F)(F)C(F)F"
assigned_category = "no"

[[record]]
molecule = "FC(F)(F)C(F)(F)C(F)(F)CC1CO1 (stereo unspecified)"
assigned_category = "no"

[[record]]
molecule = "CCN(CCO)S(=O)(=O)C(F)(F)C(F)(F)C(F)(F)C(F)(F)C(F)(F)C(F)(F)C(F)(F)C(F)(F)F"
assigned_category = "no"

[[record]]
molecule = "NCC(F)(F)C(F)(F)C(F)(F)C(F)(F)C(F)(F)C(F)(F)F"
assigned_category = "no"

[[record]]
molecule = "Cc1cc(C)c(O)c(C(C)(C)C)c1"
assigned_category = "yes"

[[record]]
molecule = "O=C=NCc1cccc(CN=C=O)c1"
assigned_category = "no"

[[record]]
molecule = "OC(O)C(F)(F)C(F)(F)F"
assigned_category = "no"

[[record]]
molecule = "O=C(c1ccccc1)c1ccc(O)cc1O"
assigned_category = "no"

[[record]]
molecule = "O=C(F)C1(F)C(F)(F)C(F)(F)C(F)(F)C(F)(F)C1(F)F"
assigned_category = "no"


---

Test: BSK_hDFCGF_SRB: Viability Assessment in the BioMAP Diversity Plus: hDFCGF Assay (AID 2283061);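 further: cells exposed to compound for 24 h before the read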
Details: primary human foreskin fibroblasts
Calls of active or inactive are those of the source. Rule for the calls: active = hit-call score of the fitted dose curve at least 0.9, where 1 is the maximum; inactive = score below 0.9.
Possible outcomes: Yes = active, No = inactive

[[record]]
molecule = "O=S(=O)(Cl)C(F)(F)C(F)(F)C(F)(F)C(F)(F)C(F)(F)C(F)(F)C(F)(F)C(F)(F)F"
assigned_category = "No"

[[record]]
molecule = "O=C(Cl)C(F)(F)C(F)(F)C(F)(F)C(F)(F)C(F)(F)C(F)(F)F"
assigned_category = "No"

[[record]]
molecule = "C=CC(=O)OCC(F)(F)C(F)(F)C(F)(F)C(F)(F)C(F)(F)C(F)(F)C(F)(F)C(F)F"
assigned_category = "No"

[[record]]
molecule = "CCN(CC)c1ccc(C=O)c(O)c1"
assigned_category = "No"

[[record]]
molecule = "O=C=Nc1cccc2c(N=C=O)cccc12"
assigned_category = "No"

[[record]]
molecule = "C=C(C)C(=O)OCC(F)(F)C(F)(F)C(F)(F)C(F)F"
assigned_category = "No"

[[record]]
molecule = "O=C(Cl)C(F)(F)C(F)(F)C(F)(F)C(F)(F)C(F)(F)C(F)(F)C(F)(F)F"
assigned_category = "No"

[[record]]
molecule = "O=C1C=CC(=O)N1c1ccc(Cc2ccc(N3C(=O)C=CC3=O)cc2)cc1"
assigned_category = "Yes"

[[record]]
molecule = "O=S(=O)(OCC(F)(F)F)C(F)(F)C(F)(F)C(F)(F)C(F)(F)F"
assigned_category = "No"

[[record]]
molecule = "OCC(F)(F)C(F)(F)C(F)(F)C(F)(F)C(F)(F)C(F)(F)CO"
assigned_category = "No"

[[record]]
molecule = "NCC(F)(F)C(F)(F)C(F)(F)C(F)(F)C(F)(F)C(F)(F)F"
assigned_category = "No"

[[record]]
molecule = "O=C(F)C1(F)C(F)(F)C(F)(F)C(F)(F)C(F)(F)C1(F)F"
assigned_category = "No"

[[record]]
molecule = "FC(F)(F)C(F)(F)C(F)(F)C(F)(F)C(F)(F)C(F)(F)C(F)(F)CCI"
assigned_category = "No"

[[record]]
molecule = "CCN(CC)c1ccc2c(c1)Oc1cc(N(CC)CC)ccc1C21OC(=O)c2ccccc21"
assigned_category = "No"

[[record]]
molecule = "Cc1cc(O)c(C(C)(C)C)cc1C(C)(C)C"
assigned_category = "Yes"

[[record]]
molecule = "OCC(F)(F)C(F)(F)C(F)(F)CO"
assigned_category = "No"

[[record]]
molecule = "CCOC(C=C(C)CCC=C(C)C)OCC"
assigned_category = "Yes"

[[record]]
molecule = "Cc1ccc(O)c(-n2nc3ccccc3n2)c1"
assigned_category = "No"

[[record]]
molecule = "CCN(CC)c1ccc(N=Nc2ccccc2)cc1"
assigned_category = "No"

[[record]]
molecule = "NS(=O)(=O)C(F)(F)C(F)(F)C(F)(F)C(F)(F)C(F)(F)C(F)(F)F"
assigned_category = "No"

[[record]]
molecule = "CC(C)CCCC(C)CCO (stereo unspecified)"
assigned_category = "No"

[[record]]
molecule = "Brc1nc2ccccc2s1"
assigned_category = "No"

[[record]]
molecule = "O=C(c1ccccc1)c1ccc(O)cc1O"
assigned_category = "No"

[[record]]
molecule = "NC(=O)C(F)(F)C(F)(F)C(F)(F)F"
assigned_category = "No"

[[record]]
molecule = "O=C(O)C(F)(F)OC(F)(F)C(F)(F)OC(F)(F)C(F)(F)OC(F)(F)F"
assigned_category = "No"

[[record]]
molecule = "CC1=CC2C3C=CC(C3)C2C1C (stereo unspecified)"
assigned_category = "No"

[[record]]
molecule = "CO[Si](C)(CCC(F)(F)C(F)(F)C(F)(F)C(F)(F)C(F)(F)C(F)(F)F)OC"
assigned_category = "No"

[[record]]
molecule = "OCCCCC(F)(F)C(F)(F)C(F)(F)C(F)(F)F"
assigned_category = "No"

[[record]]
molecule = "COC(F)(C(F)F)C(F)(F)F (stereo unspecified)"
assigned_category = "No"

[[record]]
molecule = "O=C1c2c(O)ccc(Nc3ccc(CCO)cc3)c2C(=O)c2c([N+](=O)[O-])ccc(O)c21"
assigned_category = "Yes"

[[record]]
molecule = "FC(F)(F)C(F)(F)C(F)(F)CC1CO1 (stereo unspecified)"
assigned_category = "No"

